# Measured On: T1, cynomolgus SIRP-α D1 domain (cyno1) (cynomolgus monkey, UniProt Q5TFQ8 30-148 (human entry), limits assumed)
# T1 chain: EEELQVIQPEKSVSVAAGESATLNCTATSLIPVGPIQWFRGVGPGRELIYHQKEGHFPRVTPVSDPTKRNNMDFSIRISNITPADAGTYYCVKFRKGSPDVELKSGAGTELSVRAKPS
# Protocol Notes: SPR, Langmuir fit
Think of 0.0003 s⁻¹ as a floor: if koff stands on it or above, it is True; beneath it, False.

Record excerpt, results attached:
Binder: S23 (scFv, V domains shown, also called clone 23) VH: DVQLVESGGGVVRPGESLRLSCAASGFTFSSHAMSWVRQAPGKGLEWLAGISAGGSDTYYIDSVKGRFTISRDNSKSSLYLRMNSLTAEDTAVYYCARETWNHLFDYWGLGTLVTVSS VL: ALTQPASVSANPGETVKITCSGGDYYSTYYAWYQQKSPGSAPVTVIHSDDERPSDIPSRFSGSASGSAATLIITGVRVEDEAVYFCGGYDGRTYINTFGAGTTLTVL
Label: False
--
Binder: S55 (scFv, V domains shown, also called clone 55) VH: DVQLVESGGGVVRPGESLRLSCAVSGFRFSSYAMSWVRQAPGKGLEWVSGISSGGDTYYVDSVKGRFTISRDNSKNTLYLQVNSLTAEDTAIYYCARETWNHLFDYWGLGTLVTVSS VL: ALTQPASVSANLGETVEITCSGGDSSSHYYGWYQQKSPGSAPVTVIYSDDERPSDIPSRFSGSASGSTATLTITGVRVEDEAIYYCGAYDGSTYANTFGAGTTLTVL
Label: False
--
Binder: S76 (scFv, V domains shown, also called clone 76) VH: DVQLVESGGGVVRPGESLRLSCAASGFTFSSYAMSWVRQAPGKGLEWLAGISAGGSDTYYIDSVKGRFTISRDNSKNSLYLQMNSLTAEDTAVYYCARETWNHLFDYWGLGTLVTVSS VL: ALTQPASVSANPGETVKITCSGGDWYSTYYGWYQQKSPGSAPVTVIHSDDKRPSDIPSRFSGSASGSAATLTITGVRVEDEAVYYCAGYDGRTYINTFGAGTTLTVL
Label: False
--
Binder: S189 (scFv, V domains shown) VH: DVQLVESGGGVVRPGESLRLSCAASGFTFSSSDMNWVRQAPGEGLEWVSLISGSGEITYYADSVKGRFTISRDNSKNTLYLQMNSLRAEDTAIYYCAKENNMYRFFDYWGLGTLVTVSS VL: ETVLTQSPGTLSLSPGERATLSCRASQSVYTYLAWYQQKPGQPPRLLIHAARNRAAGIPDRFSGSGSGTEFTLTISSLQSEDFAVYYCQQYYDRPPLTFGGGTKVEIK
Label: True
--
Binder: S73 (scFv, V domains shown, also called clone 73) VH: DVQLVESGGGVVRPGESLRLSCEASGFTFSSNAMSWARQAPGKGLEWVAGISSGSDTYYGDSVKGRLTISRDNSKNILYLQMNSLTAEDTAVYYCARETWNHLFDYWGLGTLVTVSS VL: ALTQPASVSANPGETVKITCSGGIYSSYYYAWYQQKSPGSAPVTLIYSDDKRPSNIPSRFSGSASGSTATLTITGVRAEDEAVYFCGGYDQSSYTNPFGAGTTLTVL
Label: False

Has S194 (scFv, V domains shown) VH: DVQLVESGGGVVRPGESLRLSCAASGFTFRNYGMSWVRQAPGEGLEWVSASSGSGSTYYADSVKGRFTISRDNSKNTLYLQMNSLRAEDTAIYYCAKVTWNNFFDYWGLGTLVTVSS VL: EIVLAQSPDTLSVSPGERATLTCRASQDVAGKLAWYQQKPGQAPRLLIHATSSRADGIPARFSGSGSGTEFTLTITGLQSEDFAVYYCQQHYDWSPLTFGGGTKVEIK a recorded koff greater than or equal to 0.0003 s⁻¹?
True

Has S206 (scFv, V domains shown) VH: DVQLVESGGAVVRPGETLRLSCTASGFTFSSYAMSWVRQAPGKGLEWVSGISASGSDTYYADSVKGRSTISRDNSKNTLYLRMSSLTAEDTAVYYCARETWNHLFDYWGLGTLVTLSS VL: ALTQPASVSANPGETVKITCSGGGTSSYYGWYQQKSPGSAPVTLIHSDDKRPSDIPSRFSGSASGSTATLTITGVQAEDEAVYYCGGYDYTTYVNTFGAGTTLTVL a recorded koff greater than or equal to 0.0003 s⁻¹?
True

Has S3 (scFv, V domains shown, also called clone 3; scFv-Fc form of AB3) VH: AVTLDESGGGLQTPGGALSLVCKASGFIFSDYGMNWVRQAPGKGLEFVAQITSGSRTYYGAAVKGRATISRDNRQSTVKLQLNNLRAEDTGIYFCARDFGSGVGSIDAWGNGTEVIVSS VL: ALTQPASVSANLGGTVKITCSGSRGRYGWYQQRSPGSAPVTVIYRDNQRPSNIPSRFSSSTSGSTSTLTITGVQADDESVYFCGSYDGSIDIFGAGTTLTVL a recorded koff greater than or equal to 0.0003 s⁻¹?
True

Has S74 (scFv, V domains shown, also called clone 74) VH: DVQLVESGGGVVRPGESLRLSCAASGFTFSSNAMSWVRQAPGKGLEWLAGISAGDSDTYYPASVKGRFTISRDNPKNTLYLQMNTLTAEDTAVYYCARETWNHLFDYWGLGTLVTVSS VL: ALTQPASVSANPGETVKIACSGGSYYSYYYGWYQQKSPGSALVTVIYSDDKRPSGIPSRFSGSASGSTATLTITGVRAEDEAVYYCGGYDYSSYTNDFGAGTTLTVL a recorded koff greater than or equal to 0.0003 s⁻¹?
True
